Study system: rat TRPV2 (Rattus norvegicus, UniProt Q9WUD2, A713V/L151P/T158I)
Construct: A cDNA fragment encoding the full-length rat TRPV2 was subcloned into pCI-neo; expressed in transfected cells
Sequence (Q9WUD2 whole entry L151P/T158I/A713V, the tested form may be a part): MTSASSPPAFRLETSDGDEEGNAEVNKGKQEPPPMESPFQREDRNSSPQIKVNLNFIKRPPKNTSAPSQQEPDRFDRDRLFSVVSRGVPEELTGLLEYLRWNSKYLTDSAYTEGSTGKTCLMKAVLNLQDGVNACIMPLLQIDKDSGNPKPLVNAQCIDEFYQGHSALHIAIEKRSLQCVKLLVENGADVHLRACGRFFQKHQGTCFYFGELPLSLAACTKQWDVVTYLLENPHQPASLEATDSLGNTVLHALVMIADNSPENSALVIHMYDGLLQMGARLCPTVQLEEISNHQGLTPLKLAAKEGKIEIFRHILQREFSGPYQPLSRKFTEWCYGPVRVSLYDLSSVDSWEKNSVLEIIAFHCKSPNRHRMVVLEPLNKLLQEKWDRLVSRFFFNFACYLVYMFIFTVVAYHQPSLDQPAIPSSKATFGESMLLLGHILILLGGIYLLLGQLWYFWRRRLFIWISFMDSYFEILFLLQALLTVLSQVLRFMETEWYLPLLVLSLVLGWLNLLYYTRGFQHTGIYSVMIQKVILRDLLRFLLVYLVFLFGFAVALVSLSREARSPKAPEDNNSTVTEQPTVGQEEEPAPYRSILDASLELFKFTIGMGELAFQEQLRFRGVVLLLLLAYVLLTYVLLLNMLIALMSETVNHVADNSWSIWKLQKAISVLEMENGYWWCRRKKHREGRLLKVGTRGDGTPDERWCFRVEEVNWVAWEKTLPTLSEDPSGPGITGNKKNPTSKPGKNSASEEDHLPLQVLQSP
Assay remarks: FLIPR calcium mobilization assay in rat TRPV2-expressing HEK293 cells
Type: cell-based
Assay context: HEK293; read-out: % Response (activation of rat TRPV2)
Endpoint: Emax at 100 µM (%)
The reply should contain only the number, in %.

Query (compound): C=C(C)[C@@H]1CCC(C)=C[C@H]1C1=C(O)C(=O)C(CCCCC)=CC1=O ; field requested: Emax at 100 µM
47

Query (compound): C=C(C)[C@@H]1CCC(C)=C[C@H]1c1c(O)cc(O)cc1CCCCC ; field requested: Emax at 100 µM
0

Query (compound): CCCn1c(C)c(C(=O)c2cccc3ccccc23)c2ccccc21 ; field requested: Emax at 100 µM
14

Query (compound): CCCCCCC(C)(C)c1cc(O)c2c(c1)OC(C)(C)[C@H]1CC=C(CO)C[C@H]21 ; field requested: Emax at 100 µM
31
